Reference source for all entries: patent US20210038607A1

ASSAY_TARGET: Human HDAC9 (Homo sapiens)
Construct: amino acids 604-1066 with C-terminal His tag; His (C); host or cells: baculovirus expression system
Sequence (Q9UKV0 604-1066 isoform Q9UKV0-5): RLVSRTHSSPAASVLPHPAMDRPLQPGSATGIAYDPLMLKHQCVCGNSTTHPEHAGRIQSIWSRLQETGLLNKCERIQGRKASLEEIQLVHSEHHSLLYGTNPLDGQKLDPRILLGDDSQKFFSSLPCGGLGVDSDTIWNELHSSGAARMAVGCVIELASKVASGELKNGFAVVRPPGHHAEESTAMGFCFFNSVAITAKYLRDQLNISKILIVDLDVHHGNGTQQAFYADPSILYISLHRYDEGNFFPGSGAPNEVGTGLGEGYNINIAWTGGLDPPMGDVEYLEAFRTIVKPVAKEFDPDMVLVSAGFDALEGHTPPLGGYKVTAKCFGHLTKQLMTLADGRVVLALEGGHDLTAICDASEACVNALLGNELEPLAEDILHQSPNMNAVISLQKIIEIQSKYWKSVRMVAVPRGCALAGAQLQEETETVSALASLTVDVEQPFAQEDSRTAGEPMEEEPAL
EXPERIMENT_SUMMARY: HDAC9 biochemical assay, class IIa-specific substrate
RUN_PARAMETERS: read-out: HDAC Isoform IC50 (nM) 9
Let's look at some molecules and their measured IC50.

These solved cases illustrate the format of a correct answer.
{"COMPOUND_STRING": "FC(F)(F)c1nc(-c2ccc(CN(c3cnccn3)c3cncnc3C3CC3)s2)no1", "IC50": "≤ 1000 nM"}
{"COMPOUND_STRING": "FC(F)(F)c1nc(-c2ccc(CN(c3ccccn3)c3cnccn3)s2)no1", "IC50": "≤ 10000 nM"}
{"COMPOUND_STRING": "Cc1nccnc1N(Cc1ccc(-c2noc(C(F)(F)F)n2)s1)c1cnccn1", "IC50": "≤ 1000 nM"}
{"COMPOUND_STRING": "OC1(c2cnnc(N(Cc3ccc(-c4noc(C(F)(F)F)n4)s3)c3cnccn3)c2)COC1", "IC50": "≤ 10000 nM"}
{"COMPOUND_STRING": "FC(F)(F)c1nc(-c2ccc(CN(c3ccccn3)c3ccccn3)s2)no1", "IC50": "≤ 10000 nM"}

Query string: Item `CC(F)(F)c1cnnc(N(Cc2ccc(-c3noc(C(F)(F)F)n3)s2)c2cnccn2)c1` has what recorded IC50?
Result string: ≤ 10000 nM

Query string: Next molecule: `O=C(c1cnnc(N(Cc2ccc(-c3noc(C(F)(F)F)n3)s2)c2cnccn2)c1)N1CCOCC1`
Result string: ≤ 10000 nM

Query string: Entry `NC(=O)c1nccnc1N(Cc1ccc(-c2noc(C(F)(F)F)n2)s1)c1cnccn1` please
Result string: ≤ 10000 nM

====

ASSAY_TARGET: Human HDAC11 (Homo sapiens, UniProt Q96DB2)
Construct: Human HDAC11 (full length); His (N); host or cells: baculovirus expression system
Sequence (Q96DB2 whole entry): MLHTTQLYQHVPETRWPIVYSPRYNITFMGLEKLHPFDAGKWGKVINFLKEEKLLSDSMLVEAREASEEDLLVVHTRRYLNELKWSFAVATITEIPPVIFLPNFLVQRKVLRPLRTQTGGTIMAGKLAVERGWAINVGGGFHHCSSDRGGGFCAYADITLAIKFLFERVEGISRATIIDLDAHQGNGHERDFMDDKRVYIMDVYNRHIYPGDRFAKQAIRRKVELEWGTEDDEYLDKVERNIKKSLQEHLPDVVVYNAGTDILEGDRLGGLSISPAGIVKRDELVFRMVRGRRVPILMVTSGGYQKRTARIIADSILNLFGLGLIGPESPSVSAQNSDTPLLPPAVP
EXPERIMENT_SUMMARY: HDAC11 biochemical assay, class IIa-specific substrate
RUN_PARAMETERS: read-out: HDAC Isoform IC50 (nM) 11
Form field: IC50 (one value per entry).

Some molecules with recorded IC50:
{"COMPOUND_STRING": "O=C(c1cnnc(N(Cc2ccc(-c3noc(C(F)(F)F)n3)s2)c2cnccn2)c1)N1CC(F)(F)C1", "IC50": "> 10000 nM"}
{"COMPOUND_STRING": "CC(C)(O)c1cnnc(N(Cc2ccc(-c3noc(C(F)(F)F)n3)s2)c2cnccn2)c1", "IC50": "> 10000 nM"}
{"COMPOUND_STRING": "O=C(c1cnnc(N(Cc2ccc(-c3noc(C(F)(F)F)n3)s2)c2cnccn2)c1)N1CC2CCC(C1)O2", "IC50": "> 10000 nM"}
{"COMPOUND_STRING": "O=C(c1cnnc(N(Cc2ccc(-c3noc(C(F)(F)F)n3)s2)c2cnccn2)c1)N1CCCC1", "IC50": "> 10000 nM"}
{"COMPOUND_STRING": "COc1nccnc1N(Cc1ccc(-c2noc(C(F)(F)F)n2)s1)c1cnccn1", "IC50": "> 10000 nM"}

Query string: Which measured IC50 belongs to `O=C(c1cnnc(N(Cc2ccc(-c3noc(C(F)(F)F)n3)s2)c2cnccn2)c1)N1CC2(COC2)C1` , tested on Human HDAC11 (Homo sapiens, UniProt Q96DB2)?
Result string: > 10000 nM

Query string: Same read-out for `NC(=O)c1ccc(N(Cc2ccc(-c3noc(C(F)(F)F)n3)s2)c2cnccn2)nn1` ?
Result string: > 10000 nM

Query string: Query `FC(F)c1cnnc(N(Cc2ccc(-c3noc(C(F)(F)F)n3)s2)c2cnccn2)c1` next
Result string: > 10000 nM

Query string: Ok, now `Nc1cnnc(N(Cc2ccc(-c3noc(C(F)(F)F)n3)s2)c2cnccn2)c1`
Result string: > 10000 nM

Query string: How about this molecule: `O=C(c1ccc(N(Cc2ccc(-c3noc(C(F)(F)F)n3)s2)c2cnccn2)nn1)N1CCCC1`
Result string: > 10000 nM

Query string: Would you kindly repeat that for `O=C(c1ccc(N(Cc2ccc(-c3noc(C(F)(F)F)n3)s2)c2cnccn2)nn1)N1C[C@@H]2C[C@H]1C[S@@+]2[O-]` ?
Result string: > 10000 nM

====

ASSAY_TARGET: Human HDAC1 (Homo sapiens)
Construct: full length with C-terminal His-tag and C-terminal FLAG-tag; His (C); FLAG (C); host or cells: baculovirus expression system
Sequence (Q13547 whole entry): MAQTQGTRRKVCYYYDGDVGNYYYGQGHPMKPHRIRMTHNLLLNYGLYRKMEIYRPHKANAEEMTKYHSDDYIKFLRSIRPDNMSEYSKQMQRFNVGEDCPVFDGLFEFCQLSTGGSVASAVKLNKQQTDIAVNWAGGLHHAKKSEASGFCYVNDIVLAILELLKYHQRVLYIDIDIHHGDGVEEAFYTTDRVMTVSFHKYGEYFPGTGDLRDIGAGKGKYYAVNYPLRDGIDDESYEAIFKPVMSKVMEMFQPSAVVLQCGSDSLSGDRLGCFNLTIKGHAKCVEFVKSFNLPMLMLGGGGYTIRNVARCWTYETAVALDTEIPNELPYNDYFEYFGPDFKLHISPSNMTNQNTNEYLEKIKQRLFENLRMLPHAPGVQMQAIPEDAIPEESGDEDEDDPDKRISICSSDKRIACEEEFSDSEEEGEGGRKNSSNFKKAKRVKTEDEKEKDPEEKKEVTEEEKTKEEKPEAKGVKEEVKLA
EXPERIMENT_SUMMARY: HDAC1 biochemical assay, AMC-labeled peptide substrate
RUN_PARAMETERS: read-out: HDAC Isoform IC50 (nM) 1
This listing pairs compounds with measured IC50.

{"COMPOUND_STRING": "NC(=O)c1ccc(N(Cc2ccc(-c3noc(C(F)(F)F)n3)s2)c2cnccn2)nn1", "QUANTITY_KIND": "IC50", "RESULT": "≤ 10000 nM"}
{"COMPOUND_STRING": "FC(F)(F)c1ncc(N(Cc2ccc(-c3noc(C(F)(F)F)n3)s2)c2cnccn2)cn1", "QUANTITY_KIND": "IC50", "RESULT": "> 10000 nM"}
{"COMPOUND_STRING": "FC(F)(F)c1nc(-c2ccc(CN(c3cnccn3)c3ncccc3C3CC3)s2)no1", "QUANTITY_KIND": "IC50", "RESULT": "> 10000 nM"}

Query string: May I ask what IC50 has been recorded for `FC(F)(F)c1nc(-c2ccc(CN(c3cnccn3)c3ccc(N4CCCC4)nn3)s2)no1` ?
Result string: ≤ 10000 nM

====

ASSAY_TARGET: Human HDAC4 (Homo sapiens, UniProt P56524)
Construct: amino acids 627-1085 with N-terminal GST tag; GST (N); host or cells: baculovirus expression system
Sequence (P56524 627-1084 limits assumed): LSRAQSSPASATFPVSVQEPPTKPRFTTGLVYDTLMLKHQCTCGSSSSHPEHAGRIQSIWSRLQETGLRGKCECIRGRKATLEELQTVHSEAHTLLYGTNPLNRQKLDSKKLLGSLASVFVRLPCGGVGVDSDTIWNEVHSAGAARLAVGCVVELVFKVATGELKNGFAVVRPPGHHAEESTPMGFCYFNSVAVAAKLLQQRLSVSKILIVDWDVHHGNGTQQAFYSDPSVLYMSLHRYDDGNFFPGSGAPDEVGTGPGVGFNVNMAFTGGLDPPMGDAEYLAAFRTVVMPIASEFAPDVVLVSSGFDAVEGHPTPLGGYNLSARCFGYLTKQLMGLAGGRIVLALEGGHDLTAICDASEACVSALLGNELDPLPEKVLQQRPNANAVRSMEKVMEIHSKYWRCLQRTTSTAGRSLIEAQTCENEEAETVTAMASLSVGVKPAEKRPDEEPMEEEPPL
EXPERIMENT_SUMMARY: HDAC4 biochemical assay, class IIa-specific substrate
RUN_PARAMETERS: read-out: HDAC Isoform IC50 (nM) 4
# Lookup of reported IC50 keyed by entry

Below, each entry is followed by its recorded IC50 result.
{"COMPOUND": "Cc1cc(C)nc(N(Cc2ccc(-c3noc(C(F)(F)F)n3)s2)c2cnccn2)n1 [Example AZ]", "ASSAY_TARGET": "Human HDAC4 (Homo sapiens, UniProt P56524)", "RESULT": "> 10000 nM"}
{"COMPOUND": "O=C(c1cnnc(N(Cc2ccc(-c3noc(C(F)(F)F)n3)s2)c2cnccn2)c1)N1C[C@@H]2C[C@H]1CO2 [Example FV]", "ASSAY_TARGET": "Human HDAC4 (Homo sapiens, UniProt P56524)", "RESULT": "≤ 10000 nM"}
{"COMPOUND": "FC(F)(F)c1nc(-c2ccc(CN(c3cnccn3)c3nccc(N4CCCC4)n3)s2)no1 [Example AV]", "ASSAY_TARGET": "Human HDAC4 (Homo sapiens, UniProt P56524)", "RESULT": "≤ 10000 nM"}

Continue with the next compound.
Query string: Any idea what its IC50 is? The compound is CC(C)OC1CN(C(=O)c2cnnc(N(Cc3ccc(-c4noc(C(F)(F)F)n4)s3)c3cnccn3)c2)C1 [Example GC]
Result string: ≤ 1000 nM

====

Measured IC50 of individual entries
ASSAY_TARGET: Recombinant human HDAC6 (Homo sapiens)
Construct: full length, MW=159 kDa; GST (N); host or cells: Sf9 insect cells (baculovirus)
Sequence (Q9UBN7 whole entry): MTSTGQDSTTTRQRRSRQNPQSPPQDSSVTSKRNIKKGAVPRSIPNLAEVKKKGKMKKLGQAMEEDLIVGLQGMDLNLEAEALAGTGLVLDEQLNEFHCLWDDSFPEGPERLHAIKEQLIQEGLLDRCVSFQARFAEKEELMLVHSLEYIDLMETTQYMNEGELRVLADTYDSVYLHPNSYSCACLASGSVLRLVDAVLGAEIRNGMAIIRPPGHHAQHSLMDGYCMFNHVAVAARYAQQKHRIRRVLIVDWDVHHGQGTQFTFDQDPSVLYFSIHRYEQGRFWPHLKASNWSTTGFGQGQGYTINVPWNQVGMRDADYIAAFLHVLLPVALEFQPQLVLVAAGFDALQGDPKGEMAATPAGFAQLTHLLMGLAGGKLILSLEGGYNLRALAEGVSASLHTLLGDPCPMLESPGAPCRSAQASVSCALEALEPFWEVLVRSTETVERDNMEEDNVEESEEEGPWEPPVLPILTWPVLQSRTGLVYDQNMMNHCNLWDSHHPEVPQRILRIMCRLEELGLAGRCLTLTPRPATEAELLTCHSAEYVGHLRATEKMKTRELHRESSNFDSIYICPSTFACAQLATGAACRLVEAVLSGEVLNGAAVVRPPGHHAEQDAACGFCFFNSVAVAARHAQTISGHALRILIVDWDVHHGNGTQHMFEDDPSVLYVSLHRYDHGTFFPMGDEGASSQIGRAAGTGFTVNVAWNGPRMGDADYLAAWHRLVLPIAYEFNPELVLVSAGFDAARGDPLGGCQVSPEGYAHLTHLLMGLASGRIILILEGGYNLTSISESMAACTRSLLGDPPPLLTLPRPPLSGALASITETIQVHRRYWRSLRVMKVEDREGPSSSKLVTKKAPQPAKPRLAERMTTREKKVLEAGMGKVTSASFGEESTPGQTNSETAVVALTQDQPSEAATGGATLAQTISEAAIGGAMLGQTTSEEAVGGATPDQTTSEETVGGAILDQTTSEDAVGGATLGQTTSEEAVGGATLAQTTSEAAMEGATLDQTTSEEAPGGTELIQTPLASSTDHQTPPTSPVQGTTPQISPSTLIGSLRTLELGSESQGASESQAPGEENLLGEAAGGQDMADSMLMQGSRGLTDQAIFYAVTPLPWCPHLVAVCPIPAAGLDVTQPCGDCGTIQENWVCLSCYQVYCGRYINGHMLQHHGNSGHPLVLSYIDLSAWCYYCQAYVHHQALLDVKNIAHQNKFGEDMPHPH
EXPERIMENT_SUMMARY: HDAC6 biochemical assay, AMC-labeled peptide substrate
RUN_PARAMETERS: HDAC6; read-out: HDAC Isoform IC50 (nM) 6

Query string: So what does the record say about IC50 for `Cn1ccc2nc(N(Cc3ccc(-c4noc(C(F)(F)F)n4)s3)c3cnccn3)cnc21` ?
Result string: ≤ 10000 nM

Query string: Then what about the compound `FC(F)(F)c1nc(-c2ccc(CN(c3cnccn3)c3cncnc3C3CC3)s2)no1` ?
Result string: ≤ 10000 nM

Query string: Next up: `FC(F)(F)c1cncc(N(Cc2ccc(-c3noc(C(F)(F)F)n3)s2)c2cnccn2)n1`
Result string: ≤ 10000 nM

Query string: Lookup `O=C(c1ccc(N(Cc2ccc(-c3noc(C(F)(F)F)n3)s2)c2cnccn2)nn1)N1CCCC1`
Result string: ≤ 500 nM

Query string: Could you do the same for `COc1cncc(N(Cc2ccc(-c3noc(C(F)(F)F)n3)s2)c2cc(C(F)(F)F)cnn2)n1` , please?
Result string: ≤ 500 nM

Query string: Repeat for the following compound: `O=C(c1ccc(N(Cc2ccc(-c3noc(C(F)(F)F)n3)s2)c2cnccn2)nn1)N1C[C@@H]2C[C@H]1C[S@@+]2[O-]`
Result string: ≤ 500 nM

Query string: Then this compound: `O=C(c1cnnc(N(Cc2ccc(-c3noc(C(F)(F)F)n3)s2)c2cnccn2)c1)N1C2CCC1COC2`
Result string: ≤ 500 nM

Query string: Note, next up: `O=C(c1cnnc(N(Cc2ccc(-c3noc(C(F)(F)F)n3)s2)c2cnccn2)c1)N1C[C@H]2C[C@@H]1CO2`
Result string: ≤ 500 nM

Query string: What would you report for `FC(F)(F)c1nc(-c2ccc(CN(c3cnccn3)c3cccnn3)s2)no1` ?
Result string: ≤ 10000 nM

Query string: // repeat for `Cc1cncc(N(Cc2ccc(-c3noc(C(F)(F)F)n3)s2)c2cnccn2)n1` and report
Result string: ≤ 500 nM

Query string: Another: `FC(F)(F)c1cnnc(N(Cc2ccc(-c3noc(C(F)(F)F)n3)s2)c2cnccn2)c1`
Result string: ≤ 500 nM

Query string: Same for `COc1ncc(N(Cc2ccc(-c3noc(C(F)(F)F)n3)s2)c2cnccn2)cn1`
Result string: ≤ 10000 nM
